tested on: Pseudomonas aeruginosa; test: In vitro antibacterial activity against Pseudomonas aeruginosa 1911 strain; assay type: functional
observed property: MIC

[[record]]
compound = "CO[C@H]1CCC[C@H]2C1=C(C(=O)[O-])N1C(=O)[C@H]([C@@H](C)O)[C@@H]21.[Na+] [SANFETRINEM SODIUM]"
result = "> 32 µg/mL"

[[record]]
compound = "C[C@@H](O)[C@H]1C(=O)N2C(C(=O)O)=C3[C@@H](NC4CCCC4)CCC[C@@H]3[C@H]12"
result = "32 µg/mL"

[[record]]
compound = "C[C@@H](O)[C@H]1C(=O)N2C(C(=O)O)=C3[C@@H](N)CCC[C@@H]3[C@H]12"
result = "4 µg/mL"

[[record]]
compound = "C[C@@H](O)[C@H]1C(=O)N2C(C(=O)O)=C3[C@H](CCC[C@@H]3N(C)C)[C@H]12"
result = "8 µg/mL"

[[record]]
compound = "CN[C@H]1CCC[C@H]2C1=C(C(=O)O)N1C(=O)[C@H]([C@@H](C)O)[C@@H]21"
result = "4 µg/mL"

